# abundance fitness per record follows
B1: Max-interacting protein 1, residues 70 to 120; numbered along this chain, P50539 (parent)
chain: STHNELEKNRRAHLRLCLERLKVLIPLGPDCTRHTTLGLLNKAKAHIKKLE

# Variants of: B1
# test description: abundance fitness (aPCA) (normalised: wild type 0, dead -1); higher = more abundant; growth selection in yeast, the domain comes from the species named
# condition context: Homo sapiens
Please give only the number in your answer, with no unit.

entry sequence: STHNELEKNRFAHLRLCLERLKVLIPLGPDCTRHTTLGLLNKAKAHIKKLE
observed property: abundance fitness
obs value: -0.396
--
entry sequence: SDHNELEKNRRAHLRLCLERLKVLIPLGPDCTRHTTLGLLNKAKAHIKKLE
observed property: abundance fitness
obs value: -0.209
--
entry sequence: STHNELEKNRRAHLCLCLERLKVLIPLGPDCTRHTTLGLLNKAKAHIKKLE
observed property: abundance fitness
obs value: -0.801

Req: Annotate the variant STKNELEKNRRAHLRLCLERLKVLIPLGPDCTRHTTLGLLNKAKAHIKKLE with its measured abundance fitness.
Resp: 0.178

Req: Answer with reported abundance fitness of STHNELEKNRRAHLRLCLERLKVLIPDGPDCTRHTTLGLLNKAKAHIKKLE
Resp: -0.512

Req: Annotate the variant STHNELEKNRRAHLRLCLERLKVLIPLGPDCTRHTTLGLLNKAKFHIKKLE with its measured abundance fitness.
Resp: -0.346

Req: Report abundance fitness, nothing else, for this variant: STHNELEKNRRAHLRLCLERLKVLIPLGPDCTRHTTLGLMNKAKAHIKKLE
Resp: -0.098

Req: Return reported abundance fitness. Input variant: STHNELEKNRRAHLRLCLERLKVLIPLGPDCTRHTTLGLLNKAKAHIKKVE
Resp: -0.616

Req: State, in one line, measured abundance fitness of STHNELEKNRRAHLRLCLERLKVLIPLGPDCTRHTTLTLLNKAKAHIKKLE
Resp: -0.069
